Consider the following sequences; for each one, report its protein stability index.
# protocol summary: protein stability index of a GFP-peptide fusion (GPS, HEK-293T) (PSI 1-6); higher = more stable;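 also: 24-mer peptide tiles fused after GFP, lentivirally expressed, FACS-sorted into six equal bins by GFP/DsRed ratio, decoded by Illumina sequencing, PSI is the read-weighted mean bin number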
# recorded conditions: treatment: MLN4924 1 uM, 8 h; c terminus: a fixed tail appended

## Task Item under review: LSSSIIHEIDSILGNKPYSKKDYR [KCNAB2] . Reported protein stability index?
## Result 3.24

## Task Input DHLENVSKLVESGIQFMDEPEMAV [TRIM55]
## Result 4.75

## Task Input TTEQHVPEVEVQVKRRRTASLSNQ [SNURF]
## Result 5.23

## Task Input REKQLSHSLRAVSTDPPHHDHHDE [BEX1]
## Result 5.38

## Task Input LAPGPAPTRCLPGHKEEEDGEGAG [ESRRA]
## Result 5.48

## Task Input IPAVGSSLSEALDLIESDPDAWCD [MYBL2]
## Result 4.58

## Task Input HADCDRRSRIEALELLGASFANDR [FEM1B]
## Result 4.17

## Task Input EVMESEEFMLLPANQLIDIISSDE [KLHL20]
## Result 4.64

## Task Input VLVHVQKWDGKSTTIKRKREDDKL [FABP4]
## Result 2.85

## Task Input HLQEYAGNFQGIRFHYDRNPGTDA [FATE1]
## Result 3.46

## Task Input SIAPPEAEGVVLSDSPDAADSTSF [PPTC7]
## Result 5.29

## Task Input LLAEKEEKLQKEQKELQDVGQSLR [SASS6]
## Result 5.35

## Task Input LGRSIVSSPQGKSGPEAARAGGWV [PKD2L1]
## Result 3.83

## Task Input AQVPPAAPHHHHHHSHSGPEISRI [PLK2]
## Result 4.1

## Task Input KDPYGKPVDLWACGVILYILLVGY [CAMK2A]
## Result 3.07

## Task Input NKLQYHAGLASGLLNQQSLKRSAN [MED27]
## Result 3.51

## Task Input SFSVLNWDQVSRLHEVLTEVVPIH [TENT5C]
## Result 2.3

## Task Input GTRGRLESAQATFQAHRDKYEKLR [ARFIP2]
## Result 4.44

## Task Input LRYQFSRPGPQSVPLQLSAHWQCG [FCHO1]
## Result 2.12

## Task Input ARRRKKILFYCHFPDLLLTKRDSF [ALG2]
## Result 2.04

## Task Input QPPDMASALTDRTSRAPSTYTYTS [RSPH3]
## Result 4.51

## Task Input EDEGFVREEEDRALPENEFKKQIW [KCNA4]
## Result 5.19

## Task Input YSNLLVRDFRPTDQEEIKTLERYM [TENT5C]
## Result 3.35

## Task Input WVLSIDGENAGSLTHIEAQNKIRA [PDLIM7]
## Result 3.28

## Task Input APGLYNHLPWQYHAGQGGLFYSAE [CCDC3]
## Result 3.25

## Task Input CKCGECTAPRTLPSCLACNRQCLC [SPRY1]
## Result 4.04

## Task Input TIGFGDYVALQTKGALQKKPLYVA [KCNK9]
## Result 2.63
